- test-target: LPAAT-β (Homo sapiens)
pIC50: −log10 of the molar value.
endpoint: pIC50

A = Cc1nc(Nc2ccc3cn[nH]c3c2)nc(-c2cc(Cl)ccc2C)n1 [Example 22]
B = COc1ccc(Cl)cc1-c1nc(N)nc(Nc2ccc(C)cc2)n1 [Example 79]
Would you kindly point out which of A and B has the smaller pIC50 figure? Bench note: the answer is the label of the chosen record.
B
(B: 6.64, A: 7.89)

* * *

- test-target: LPAAT-β (Homo sapiens)
pIC50: −log10 of the molar value.
endpoint: pIC50

# count of solved cases: 5
C=Cc1ccc(Nc2nc(N)nc(-c3cc(Cl)ccc3C)n2)cc1 [Example 67] ... 6.15
Cc1ccc(Cl)cc1-c1nc(N)nc(Nc2ccc(COC(=O)[C@@H](N)CC(=O)O)cc2)n1 [Example 72] ... 5.85
COc1ccc(Cl)cc1-c1nc(N)nc(Nc2ccc([N+](=O)[O-])cc2)n1 [Example 3] ... 7.66
Nc1nc(Nc2ccc(Cl)cc2)nc(-c2cc(C(F)(F)F)ccc2Cl)n1 [Example 81] ... 7.00
N#Cc1ccc(Nc2nc(N)nc(-c3cc(Cl)ccc3Cl)n2)cc1 [Example 89] ... 7.00

P = CCc1ccc(Nc2nc(N)nc(-c3cc(Cl)ccc3C)n2)cc1 [Example 38]
Q = CNC(=O)c1cc(Nc2nc(N)nc(-c3cc(Cl)ccc3C)n2)ccc1Cl [Example 43]
Recorded pIC50 values differ for P and Q ; which one is higher? Write the label of whichever entry you select.
Q
(Q: 6.40, P: 6.00)

* * *

- test-target: LPAAT-β (Homo sapiens, UniProt O15120)
- Sequence (O15120 24-278): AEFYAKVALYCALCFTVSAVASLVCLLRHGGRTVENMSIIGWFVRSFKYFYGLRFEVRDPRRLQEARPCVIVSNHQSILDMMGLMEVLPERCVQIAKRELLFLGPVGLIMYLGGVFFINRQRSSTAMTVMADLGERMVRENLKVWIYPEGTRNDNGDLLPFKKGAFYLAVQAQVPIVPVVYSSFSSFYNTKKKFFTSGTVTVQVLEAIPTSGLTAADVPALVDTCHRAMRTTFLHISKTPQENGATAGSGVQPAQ
pIC50: −log10 of the molar value.
endpoint: pIC50

Cc1ccc(Cl)cc1-c1nc(N)nc(Nc2ccc(COC(=O)CC[C@H](N)C(=O)O)cc2)n1 ... 5.51

I = Cc1ccc(Cl)cc1-c1nc(N)nc(Nc2ccc3cn[nH]c3c2)n1
II = NCc1nc(Nc2ccc(Br)cc2)nc(-c2cc(Cl)ccc2Cl)n1
# return whichever of I and II has the smaller pIC50 Output the label that corresponds to your choice.
II
(II: 5.57, I: 7.26)

a = COc1ccc(Cl)cc1-c1nc(N)nc(Nc2ccc(Cl)cc2)n1
b = CCOc1ccc(Cl)cc1-c1nc(N)nc(Nc2ccc3c(c2)OCO3)n1
c = COc1ccc(Cl)cc1-c1nc(N)nc(Nc2ccccc2)n1
d = Cc1ccc(Cl)cc1-c1nc(N)nc(Nc2ccc(CF)cc2)n1
e = Cc1ccc(Cl)cc1-c1nc(Nc2ccc(Cl)cc2)nc(N2CCCCC2)n1
Put the molecules in ascending order of pIC50. Lab note: final answer is the ordered label list.
e, c, b, d, a
(e: 5.22, c: 5.64, b: 6.10, d: 6.89, a: 7.24)

P = Nc1nc(Nc2ccc(Cl)cc2)nc(-c2cc(Cl)ccc2F)n1
Q = CSc1nc(Nc2ccc(Br)cc2)nc(-c2cc(Cl)ccc2C)n1
Pick one, P or Q : lowest reported pIC50. Indicate your choice by writing its label.
Q
(Q: 5.96, P: 7.15)

I = Cc1ccc(Cl)cc1-c1nc(N)nc(Nc2ccc(N=[N+]=[N-])cc2)n1
II = CN(C)c1ccc(Cl)cc1-c1nc(N)nc(Nc2ccc(Cl)cc2)n1
III = C#Cc1ccc(Nc2nc(N)nc(-c3cc(Cl)ccc3C)n2)cc1
IV = Cc1nc(Nc2ccc(Br)cc2)nc(-c2cc(Cl)ccc2C)n1
V = Cc1ccc(Cl)cc1-c1nc(N)nc(Nc2ccc(COC(=O)CN)cc2)n1
Task field, ranking: reported pIC50, descending order. Answer format: the labels, ordered as requested.
IV, II, III, V, I
